Ref: PubChem BioAssay AID463229

Exercise: state measured AC50 for each of the compounds provided.
system: INS-1E rat beta cells, no cytokines, CellTiter-Glo ATP, 48 h; experiment: cytokine-free beta-cell viability effect – INS-1E rat cells, ATP luminescence, cherry pick, counter-screen for beta-cell apoptosis protection project, dose response (AID 463229)

Reported AC50 for INS-1E rat beta cells, no cytokines, CellTiter-Glo ATP, 48 h, given "O=C(N/N=C/c1cc(Br)ccc1O)C(=O)Nc1ccccc1OC(F)(F)C(F)F" ? 6.77 µM

Short answer please: AC50, INS-1E rat beta cells, no cytokines, CellTiter-Glo ATP, 48 h, entry "Cc1cc(Nc2cccc(Cl)c2)nc(NCc2ccccc2)n1" 6.46 µM

Item: "Cc1ccc(NC(=O)/C=C/c2ccc([N+](=O)[O-])s2)c(C)c1" Test system: INS-1E rat beta cells, no cytokines, CellTiter-Glo ATP, 48 h Read-out: AC50 Value: ? 13.1 µM

Notebook: pull reported AC50 for INS-1E rat beta cells, no cytokines, CellTiter-Glo ATP, 48 h, entry Cc1ccc(F)c([C@H]2C3C=CCC(c4ccccc4)C3C(=O)N2Cc2ccccc2)c1 (stereo not given in full) 14.4 µM

So what AC50 did "COc1cccc(/C=N/NC(=O)c2c(-c3ccccc3)noc2C)c1O" get with INS-1E rat beta cells, no cytokines, CellTiter-Glo ATP, 48 h? 8.09 µM
